Cited source for all entries: patent US12209071B2

Target: TrkB (Homo sapiens, UniProt Q16620)
Sequence (Q16620 32-822): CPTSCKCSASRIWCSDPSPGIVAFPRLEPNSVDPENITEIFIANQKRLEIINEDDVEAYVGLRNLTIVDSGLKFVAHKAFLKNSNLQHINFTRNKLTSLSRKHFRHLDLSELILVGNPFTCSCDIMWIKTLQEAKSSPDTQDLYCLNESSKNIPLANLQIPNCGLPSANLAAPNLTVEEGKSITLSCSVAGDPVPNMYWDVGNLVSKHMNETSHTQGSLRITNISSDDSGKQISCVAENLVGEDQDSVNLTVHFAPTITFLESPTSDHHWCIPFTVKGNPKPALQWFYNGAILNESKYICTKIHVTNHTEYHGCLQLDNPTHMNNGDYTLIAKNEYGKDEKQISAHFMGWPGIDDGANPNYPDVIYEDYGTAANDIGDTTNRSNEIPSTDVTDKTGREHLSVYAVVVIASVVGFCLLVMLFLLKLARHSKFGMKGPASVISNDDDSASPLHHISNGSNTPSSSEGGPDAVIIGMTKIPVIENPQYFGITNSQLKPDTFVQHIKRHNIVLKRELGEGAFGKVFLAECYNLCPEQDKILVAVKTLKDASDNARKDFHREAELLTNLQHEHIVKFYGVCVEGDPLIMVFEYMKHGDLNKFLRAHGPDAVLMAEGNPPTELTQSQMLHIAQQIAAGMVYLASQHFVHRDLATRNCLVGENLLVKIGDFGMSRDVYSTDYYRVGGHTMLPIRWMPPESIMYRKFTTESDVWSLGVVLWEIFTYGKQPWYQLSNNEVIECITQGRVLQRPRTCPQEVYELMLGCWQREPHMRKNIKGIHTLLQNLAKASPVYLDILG
Experiment: Enzyme Fragment Complementation cell-based assay, TrkB
Details: U2OS-cells over-expressing TrkB; ligand 10 ng/mL; 3 hours incubation
pEC50: −log10 of the molar value.
TEST_READOUT: pEC50

Field: example entries. Status: answers known.
{"MOLECULE": "Cn1c(=O)[nH]c(=O)n(-c2ccc(Oc3ccccc3)c(OC3CCOC3)c2)c1=O (centres unmarked)", "pEC50": 5.44}
{"MOLECULE": "Cc1cc(-n2c(=O)[nH]c(=O)n(-c3cccc4occc34)c2=O)ccc1Oc1ccccc1", "pEC50": 6.96}
{"MOLECULE": "COCCOc1cc(-n2c(=O)[nH]c(=O)n(-c3ccc(C)cc3)c2=O)ccc1Oc1ccccc1", "pEC50": 6.96}
{"MOLECULE": "O=c1[nH]c(=O)n(-c2ccc(Oc3ccccc3)c(Br)c2)c(=O)n1-c1ccccc1", "pEC50": 6.60}

(1) N#Cc1cc(-n2c(=O)[nH]c(=O)n(-c3ccccc3)c2=O)ccc1Oc1ccccc1
(2) COc1cc(-n2c(=O)[nH]c(=O)n(-c3ccccc3)c2=O)ccc1Oc1ccccc1
Looking only at measured pEC50, which entry is lower, 1 or 2 ? API: response body contains the label of the selected item. 1
(1: 5.62, 2: 6.35)

(A) Cn1c(=O)[nH]c(=O)n(-c2ccc(Oc3ccccc3)c(OCC3COC3)c2)c1=O
(B) Cc1cc(-n2c(=O)[nH]c(=O)n(-c3cnn(-c4ccccc4)c3)c2=O)ccc1Oc1ccccc1
Parameter check: reported pEC50 is higher for which label, A or B ? API: response body contains the label of the selected item. B
(B: 6.44, A: 6.21)
